# Tested on: compound stability in 1x PBS, percent remaining
# assay.notes: compound stability in phosphate-buffered saline, ADME assay, biochemical, 1x PBS, with and without 50% ACN, set 2 (AID 624456);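 note: percent left after two days of incubation at room temperature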
# cond: measured here: stability in PBS with 50% ACN
reported.metric: stability (%)
Dear colleague, please return just the value in %, with no unit written.

Solved entries:
- compound: "COc1ccc(OC)c(S(=O)(=O)Nc2cnc3ccccc3c2)c1"
  test.target: "compound stability in 1x PBS, percent remaining"
  unit.spec: "%"
  stability: 93
- compound: "Cc1ccc(C)c(NS(=O)(=O)c2cc(C(=O)Nc3ccccc3-c3ccccc3)ccc2Cl)c1"
  test.target: "compound stability in 1x PBS, percent remaining"
  unit.spec: "%"
  stability: 98
- compound: "O=C(COc1ccccc1Br)NCCc1nc2ccccc2[nH]1"
  test.target: "compound stability in 1x PBS, percent remaining"
  unit.spec: "%"
  stability: 100
- compound: "O=C1C2CC=CCC2C(=O)N1c1n[nH]c(-c2ccccc2)n1 (stereo not drawn)"
  test.target: "compound stability in 1x PBS, percent remaining"
  unit.spec: "%"
  stability: 100
- compound: "O=C(O)c1cccnc1SCCc1ccccc1"
  test.target: "compound stability in 1x PBS, percent remaining"
  unit.spec: "%"
  stability: 100
- compound: "Cc1ccc(S(=O)(=O)n2c(N)nc3ccccc32)cc1"
  test.target: "compound stability in 1x PBS, percent remaining"
  unit.spec: "%"
  stability: 98.8
- compound: "CCc1nnc(NC(=O)c2ccc(NS(=O)(=O)c3ccccc3)cc2)s1"
  test.target: "compound stability in 1x PBS, percent remaining"
  unit.spec: "%"
  stability: 95.2
- compound: "Cc1cccc(-n2cnc3cc(C(=O)N4CCCCC4)ccc32)c1"
  test.target: "compound stability in 1x PBS, percent remaining"
  unit.spec: "%"
  stability: 80

Entry COC(=O)c1ccccc1NC(=O)c1ccc(F)cc1 needs its stability filled in; supply it.
93.4

Entry Cc1nc(SCc2nc3ccccc3[nH]2)c2oc3ccccc3c2n1 needs its stability filled in; supply it.
84.7

Entry CCCN(CCC)CCNC(=O)C1CCN(Cc2nc(-c3ccc(Cl)cc3)oc2C)CC1 needs its stability filled in; supply it.
100

Entry COc1ccc(N(C(=O)CCl)C(C(=O)NCCc2ccccc2)c2cccs2)cc1Cl (stereo not drawn) needs its stability filled in; supply it.
100

Entry COc1ccc(S(=O)(=O)n2nc(OC(=O)c3ccccc3)cc2N)cc1 needs its stability filled in; supply it.
91.8

* * *

# Test system: compound stability in 1x PBS, percent remaining
# assay.notes: compound stability in phosphate-buffered saline, ADME assay, biochemical, 1x PBS, with and without 50% ACN, set 2 (AID 624456);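 note: percent left after two days of incubation at room temperature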
Outcome label depends on stability relative to 80%: at/above gives 1 (yes), below gives 0 (no).

Observe how each entry below is paired with its result.
- compound: "O=C(COC(=O)C12CC3CC(CC(C3)C1)C2)NCc1ccco1"
  label: "0 (no)"
- compound: "O=C(O)c1cccnc1SCCc1ccccc1"
  label: "1 (yes)"
- compound: "COc1ccc(C2c3c(ncn(CCN4CCOCC4)c3=N)Oc3ccc4ccccc4c32)cc1OC (stereo unspecified)"
  label: "0 (no)"
- compound: "Cc1ccc(S(=O)(=O)C(c2ccccc2)c2c(C)noc2C)cc1 (stereo unspecified)"
  label: "1 (yes)"
- compound: "Cc1cccc(-n2cnc3cc(C(=O)N4CCCCC4)ccc32)c1"
  label: "0 (no)"

Alright, here's another compound for you.
Check if stability >= 80% (inclusive). Item: O=S1(=O)Nc2c(ccc3cccnc23)-c2ccccc21
1 (yes)

* * *

# Tested on: compound stability in 1x PBS, percent remaining
# assay.notes: compound stability in phosphate-buffered saline, ADME assay, biochemical, 1x PBS, with and without 50% ACN, set 2 (AID 624456);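 note: percent left after two days of incubation at room temperature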
# cond: measured here: stability in PBS with 50% ACN
Consider the following molecules and their measured stability readings.
Dear colleague, please return just the value in %, with no unit written.

- molecule: "O=C(O)c1ccccc1OCc1ccccc1Br"
  stability [%]: 100
- molecule: "N#Cc1ccccc1CSc1nc2ncc(Br)cc2[nH]1"
  stability [%]: 55.9
- molecule: "CC(C)C(=O)NC(c1ccco1)c1ccc2cccnc2c1O (stereo not drawn)"
  stability [%]: 100

Entry CC1CCCN(C(C(=O)Nc2ccc3c(c2)OCCO3)c2ccccc2)C1 (stereo not drawn) needs its stability filled in; supply it.
100

Entry CN(C)c1nc(N)nc(CSc2nnnn2-c2cccc3ccccc23)n1 needs its stability filled in; supply it.
94.6

Entry CCCc1nc2c(=O)n(C)c(=O)nc-2n(C)n1 needs its stability filled in; supply it.
100

* * *

# Tested on: compound stability in 1x PBS, percent remaining
# assay.notes: compound stability in phosphate-buffered saline, ADME assay, biochemical, 1x PBS, with and without 50% ACN, set 2 (AID 624456);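 note: percent left after two days of incubation at room temperature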
Consider the following compounds and their measured stability readings.
Dear colleague, please return just the value in %, with no unit written.

- compound: "CCc1nnc(NC(=O)c2ccc(NS(=O)(=O)c3ccccc3)cc2)s1"
  result.number: 86
- compound: "CCc1oc2ccccc2c1C(=O)c1cc(Br)c(O)c(Br)c1"
  result.number: 100
- compound: "O=[N+]([O-])c1ccc(CN2CCOCCOCCN(Cc3ccc([N+](=O)[O-])cc3)CCOCC2)cc1"
  result.number: 96.1
- compound: "CS(=O)(=O)c1ccc(C(=O)OCC(=O)NC23CC4CC(CC(C4)C2)C3)cc1[N+](=O)[O-]"
  result.number: 12.8
- compound: "O=C1CCCC2=C1C1(CCCC1)N=C(Nc1nc3ccccc3o1)N2"
  result.number: 21.9
- compound: "CSc1nc(-c2ccc(C)cc2)nc(C(Cl)Cl)n1"
  result.number: 0.45
- compound: "O=S(=O)(NC1CCCCC1N1CCOCC1)c1ccc(Cl)cc1 (stereo not given)"
  result.number: 75
- compound: "CC[C@H]1CN2CCc3cc(OC)c(OC)cc3[C@@H]2C[C@@H]1C[C@H]1NCCc2cc(OC)c(OC)cc21"
  result.number: 23.6

Entry COC(=O)c1ccccc1NC(=O)c1ccc(F)cc1 needs its stability filled in; supply it.
11.2

Entry CCCc1nc2c(=O)n(C)c(=O)nc-2n(C)n1 needs its stability filled in; supply it.
100

* * *

# Test system: compound stability in 1x PBS, percent remaining
# assay.notes: compound stability in phosphate-buffered saline, ADME assay, biochemical, 1x PBS, with and without 50% ACN, set 2 (AID 624456);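 note: percent left after two days of incubation at room temperature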
# cond: measured here: stability in PBS with 50% ACN
reported.metric: stability (%)
Dear colleague, please return just the value in %, with no unit written.

Solved entries:
- chemical.smiles: "c1ccc(CC2CCN(c3ncnc4sccc34)CC2)cc1"
  test.target: "compound stability in 1x PBS, percent remaining"
  unit.spec: "%"
  stability: 93.2
- chemical.smiles: "CS(=O)(=O)c1ccc(C(=O)OCC(=O)NC23CC4CC(CC(C4)C2)C3)cc1[N+](=O)[O-]"
  test.target: "compound stability in 1x PBS, percent remaining"
  unit.spec: "%"
  stability: 100

Report stability on compound stability in 1x PBS, percent remaining for this entry: O=C1NCCCc2c1oc1ccc(O)cc21
100

Report stability on compound stability in 1x PBS, percent remaining for this entry: Cc1ccc(N2CCN(S(=O)(=O)N3CCCCC3)CC2)c(C)c1
96.7

Report stability on compound stability in 1x PBS, percent remaining for this entry: O=S1(=O)Nc2c(ccc3cccnc23)-c2ccccc21
94.9

Report stability on compound stability in 1x PBS, percent remaining for this entry: COc1ccc(S(=O)(=O)N2CCN(S(=O)(=O)c3ccc4c(c3)OCCO4)CC2)cc1
80.8

* * *

Consider the following compounds and their measured stability readings.
# Tested on: compound stability in 1x PBS, percent remaining
# assay.notes: compound stability in phosphate-buffered saline, ADME assay, biochemical, 1x PBS, with and without 50% ACN, set 2 (AID 624456);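 note: percent left after two days of incubation at room temperature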
# cond: measured here: stability in PBS with 50% ACN
Field: value (include unit after the number)

- compound: "COc1nc(-c2ccccc2)nnc1-c1ccccc1"
  stability: "98.9%"
- compound: "COc1ccccc1N(/N=C1\\Sc2ccccc2C1=O)C(C)=O"
  stability: "88.1%"
- compound: "O=C(O)CCC(NS(=O)(=O)c1ccc(-c2ccccc2)cc1)C(=O)O (stereo unspecified)"
  stability: "100%"
- compound: "Cc1ccc(NC(=O)CCC(=O)N/N=C/c2ccc([N+](=O)[O-])o2)cc1C"
  stability: "65.6%"
- compound: "O=C(c1ccccn1)N(Cc1cccs1)C1(C(=O)NC2CCCCC2)CCCCC1"
  stability: "97.5%"

Please turn your attention to the following entry.
Report stability on compound stability in 1x PBS, percent remaining for this entry: Cc1ccc(NS(=O)(=O)c2ccc3c(c2)CCC(=O)N3)cc1C
100%
